- protocol.notes: Chemical stability of the compound in phosphate buffer at pH 6 assessed as hydrolysis after 20 mins by paper electrophoresis analysis
- Type: physicochemical
- stated.conditions: phosphate buffer, pH 6; read-out: Drug degradation
quantity.kind: degraded at 20 min (%)

(a) Cl.Cn1nnnc1SCC1=C(C(=O)OCOC(=O)[C@@H](N)Cc2ccccc2)N2C(=O)[C@@H](NC(=O)[C@H](O)c3ccccc3)[C@H]2SC1
(b) COC(=O)[C@H](N)CC(=O)OCOC(=O)C1=C(CSc2nnnn2C)CS[C@@H]2[C@H](NC(=O)[C@H](O)c3ccccc3)C(=O)N12.Cl
// query Of the two listed items, which has the higher degraded at 20 min? First: a Second: b Identify your pick by its label.
// result a

----------
- protocol.notes: Chemical stability of the compound in phosphate buffer at pH 4.5 assessed as hydrolysis up to 60 mins by paper electrophoresis analysis
- Format: physicochemical
- stated.conditions: pH 4.5, 1 h
quantity.kind: Stability

COC(=O)[C@H](N)CC(=O)OCOC(=O)C1=C(CSc2nnnn2C)CS[C@@H]2[C@H](NC(=O)[C@H](O)c3ccccc3)C(=O)N12.Cl | Unstable
CC(C)[C@H](N)C(=O)OCOC(=O)C1=C(CSc2nnnn2C)CS[C@@H]2[C@H](NC(=O)[C@H](O)c3ccccc3)C(=O)N12.Cl | Unstable
Cl.Cn1nnnc1SCC1=C(C(=O)OCOC(=O)[C@@H](N)Cc2ccccc2)N2C(=O)[C@@H](NC(=O)[C@H](O)c3ccccc3)[C@H]2SC1 | Unstable

----------
- protocol.notes: Chemical stability of the compound in phosphate buffer at pH 4.5 assessed as hydrolysis up to 60 mins by paper electrophoresis analysis
- Type: physicochemical
- stated.conditions: pH 4.5, 1 h
quantity.kind: Stability

CC(C)C[C@H](N)C(=O)OCOC(=O)C1=C(CSc2nnnn2C)CS[C@@H]2[C@H](NC(=O)[C@H](O)c3ccccc3)C(=O)N12.Cl | Unstable
Cl.Cn1nnnc1SCC1=C(C(=O)OCOC(=O)CN)N2C(=O)[C@@H](NC(=O)[C@H](O)c3ccccc3)[C@H]2SC1 | Unstable
CC[C@H](C)[C@H](N)C(=O)OCOC(=O)C1=C(CSc2nnnn2C)CS[C@@H]2[C@H](NC(=O)[C@H](O)c3ccccc3)C(=O)N12.Cl | Unstable
